From: patent US20240092919A1

Target: T1, Human T cell receptor on human primary T cells (human, UniProt P01848 1-140; P01850 1-176); note: test concentration or dose not given here
T1 TCR alpha (looked up): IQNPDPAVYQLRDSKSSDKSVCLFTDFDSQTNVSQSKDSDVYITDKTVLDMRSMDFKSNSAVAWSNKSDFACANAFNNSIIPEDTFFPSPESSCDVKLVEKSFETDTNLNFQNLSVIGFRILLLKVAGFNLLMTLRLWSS
T1 TCR beta (looked up): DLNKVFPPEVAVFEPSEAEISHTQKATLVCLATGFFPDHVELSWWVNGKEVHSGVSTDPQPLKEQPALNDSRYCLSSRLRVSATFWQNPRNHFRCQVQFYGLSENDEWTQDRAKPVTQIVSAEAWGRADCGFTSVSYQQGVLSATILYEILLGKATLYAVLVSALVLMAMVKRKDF
Test: cell-based or functional assay
# Lookup of reported % Lysis, T cell mediated MOLM-13 cell killing, human primary T cells, E:T 10:1 keyed by entry
Reply with just the number (in %).

Consider the reported % Lysis, T cell mediated MOLM-13 cell killing, human primary T cells, E:T 10:1 for these binders:
T017000628 (bispecific antibody) DVQLVESGGGVVQPGGSLRLSCVASYDVHKINFYGWYRQAPGKEREKVAHISIGDQTDYADSAKGRFTISRDESKNTVYLQMNSLRPEDTALYYCRALSKIWPYDYWGQGTLVTVSSGGGGSGGGGSGGGGSGGGGSGGGGSGGGGSGGGGSEVQLVESGGGLVQAGGSLRLSCAASGITSKINDMGWYRQTPGNYREWVASITATGTTNYRDSVKGRFTISRDNAKSTVYLQMNSLKPEDTTVYYCNTFPPISNFWGQGTLVTVSSA :: 39
T017000633 (bispecific antibody) DVQLVESGGGVVQPGGSLRLSCVASGYVHKINFYGWYRQAPGKEREKVAHISIGDQTDYADSAKGRFTISRDESKNTVYLQMNSLRPEDTALYYCRALSRIWPYDYWGQGTLVTVSSGGGGSGGGGSGGGGSGGGGSGGGGSGGGGSGGGGSEVQLVESGGGLVQAGGSLRLSCAASGITSKINDMGWYRQTPGNYREWVASITATGTTNYRDSVKGRFTISRDNAKSTVYLQMNSLKPEDTTVYYCNTFPPISNFWGQGTLVTVSSA :: 31

Okay, next one:
Quick check: % Lysis, T cell mediated MOLM-13 cell killing, human primary T cells, E:T 10:1 of T017000640 (bispecific antibody, also called A0110056A10(E1D)-35GS-T0170056G05(L11V, G26W, L34Y, G35T, M77T, K83R, V89L, F91Y, F95L, Y99W)-A) DVQLVESGGGLVQAGGSLRLSCAASGITSKINDMGWYRQTPGNYREWVASITATGTTNYRDSVKGRFTISRDNAKSTVYLQMNSLKPEDTTVYYCNTFPPISNFWGQGTLVTVSSGGGGSGGGGSGGGGSGGGGSGGGGSGGGGSGGGGSEVQLVESGGGVVQPGGSLRLSCVASWDVHKINFYTWYRQAPGKEREKVAHISIGDQTDYADSAKGRFTISRDESKNTVYLQMNSLRPEDTALYYCRALSRIWPYDYWGQGTLVTVSSA ?
37
